Experiment: in vivo
Design: species or system mice
Details: male, NOD.Cg-Rag1tm1Mom Il2rgtm1Wjl/SzJ (NRG), mouse, iv, total radioactivity, Biodistribution: Stomach
Where a SMILES comes first, the peptide text is derived from it. Bridges are numbered along the chain shown (N, C = ends). Side-chain parts run from the residue outwards. [ ]: non-standard residue; d: D form. The star is where a group is joined. X5 = O=C(O)CN1CCN(CC(=O)O)CCN(CC(=O)N[C@@H](CS(=O)(=O)O)C(=O)N[C@@H](CCCCNC(=O)CCCc2ccc(Cl)cc2)C(=O)*)CCN(CC(=O)O)CC1; X1 = O=C(O)CN1CCN(CC(=O)O)CCN(CC(=O)N[C@@H](CS(=O)(=O)O)C(=O)N[C@@H](CCCCNC(=O)CCCc2ccc(I)cc2)C(=O)*)CCN(CC(=O)O)CC1; X7 = COc1ccc(CCCC(=O)NCCCC[C@H](NC(=O)CN2CCN(CC(=O)O)CCN(CC(=O)O)CCN(CC(=O)O)CC2)C(=O)*)cc1; 2Nal = N[C@@H](Cc1ccc2ccccc2c1)C(=O)O; Lys(iPr) = CC(C)NCCCC[C@H](N)C(=O)O; Cya = N[C@@H](CS(=O)(=O)O)C(=O)O
recorded endpoint: tissue uptake at 1 h (%ID/g)
State just the number; it will be interpreted in %ID/g.

Answered cases to consult:
molecule	tissue uptake at 1 h [%ID/g]
CC(C)NCCCC[C@H](NC(=O)[C@H]1CCC(=O)N[C@@H](CCCCNC(=O)[C@H](CCCCNC(=O)CCCc2ccc(I)cc2)NC(=O)[C@H](CS(=O)(=O)O)NC(=O)CN2CCN(CC(=O)O)CCN(CC(=O)O)CCN(CC(=O)O)CC2)C(=O)N[C@@H](Cc2ccc(O)cc2)C(=O)N[C@@H](CCCCNC(C)C)C(=O)N[C@H](CCCNC(=N)N)C(=O)N[C@@H](Cc2ccc3ccccc3c2)C(=O)N[C@H](C)C(=O)N1)C(N)=O [[^68Ga]Ga-BL34L11, metal not drawn] (K(X1)Y[Lys(iPr)][dR][2Nal][dA][dE][Lys(iPr)]-NH2; lactam N-7)	0.97
CC(C)NCCCC[C@H](NC(=O)[C@H]1CCC(=O)N[C@@H](CCCCNC(=O)[C@H](CCCCNC(=O)CCCc2ccc(Cl)cc2)NC(=O)[C@H](CS(=O)(=O)O)NC(=O)CN2CCN(CC(=O)O)CCN(CC(=O)O)CCN(CC(=O)O)CC2)C(=O)N[C@@H](Cc2ccc(O)cc2)C(=O)N[C@@H](CCCCNC(C)C)C(=O)N[C@H](CCCNC(=N)N)C(=O)N[C@@H](Cc2ccc3ccccc3c2)C(=O)N[C@H](C)C(=O)N1)C(N)=O [[^68Ga]Ga-BL34L16, metal not drawn] (K(X5)Y[Lys(iPr)][dR][2Nal][dA][dE][Lys(iPr)]-NH2; lactam N-7)	0.26

Here is another molecule to look at.
State, in one line, measured tissue uptake at 1 h of COc1ccc(CCCC(=O)NCCCC[C@H](NC(=O)CN2CCN(CC(=O)O)CCN(CC(=O)O)CCN(CC(=O)O)CC2)C(=O)N[C@@H](CS(=O)(=O)O)C(=O)NCCCC[C@@H]2NC(=O)CC[C@H](C(=O)N[C@@H](CCCCNC(C)C)C(N)=O)NC(=O)[C@@H](C)NC(=O)[C@H](Cc3ccc4ccccc4c3)NC(=O)[C@@H](CCCNC(=N)N)NC(=O)[C@H](CCCCNC(C)C)NC(=O)[C@H](Cc3ccc(O)cc3)NC2=O)cc1 [[68Ga]Ga-BL34L6, metal not drawn] (K([Cya-X7])Y[Lys(iPr)][dR][2Nal][dA][dE][Lys(iPr)]-NH2; lactam N-7)
0.05
